test-description: Binding affinity towards blood brain barrier choline transporter at 10 uM using rat brain
Kindly supply the reported Ki values for the records listed here.
Answers are plain numbers, in µM.

Example cases with answers are listed next.
[[record]]
molecule = "CCCCCCCCCC[n+]1cccc([C@@H]2CCCN2C)c1"
number = 27

[[record]]
molecule = "CCCC[n+]1ccccc1"
number = 250

[[record]]
molecule = "CCCCCCCC[n+]1cccc([C@@H]2CCCN2C)c1"
number = 49

[[record]]
molecule = "CCCCCCCC[n+]1ccccc1 [1-Octyl-pyridinium; iodide]"
number = 250


Using the record for CCCCCCCC[N+](C)(C)CCO , state its measured Ki.
10
